Listing: exon inclusion enrichment index of selected variants
B1: mRNA-splicing (parent)
chain: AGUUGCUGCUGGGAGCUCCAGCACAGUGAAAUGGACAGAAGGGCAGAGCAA

- Variants of: B1
- testMethodNotes: exon inclusion enrichment index; higher = more inclusion; WT1 exon 5 minigene, HEK293
Write no unit; give the number alone.

Here's what some known entries look like.
residueString: AGUUCACACAGGGAGCUCCCACACAGUGAAAUGGACAGAAGGGCAGAGCAA [G5C C6A U7C G8A U10A A20C G21A]
observedResult: 0.0158

residueString: AGUUAGGGAUGGGAGCUCCAGCACAGUGAAAUGGACAGAGUGGCAGAGCAA [G5A C6G U7G C9A A40G G41U]
observedResult: 0.00052

residueString: AGUUACCACCGGGAGCUCCAGCACAGGCAAAUGGACAGAAGGGCAGAGCAA [G5A U7C G8A U10C U27G G28C]
observedResult: 1.17

residueString: AGUUGAAGAAGGGAGCUCCAGCACAGUGAAAUGGACAGAAGGGCAGACCAA [C6A U7A C9A U10A G48C]
observedResult: 1.15

Now consider the entry below.
-- ask Recorded exon inclusion enrichment index of AGUUACCACCGGGAGCUCCAGCACAGUGAAAUGGGAAGAAGGGCAGAGCAA [G5A U7C G8A U10C A35G C36A] , please.
-- reply 1.29
